Test: The drug is tested on Parabacteroides merdae strain: ATCC43184 for biotransformation. The drug concentrations were measured before and after a 12-h incubation by liquid-chromatography-coupled mass spectrometry (LC–MS)
Conditions: 2 µM

Molecule: O=c1n(CCCN2CCN(c3cccc(Cl)c3)CC2)nc2ccccn12
Bacterial Biotransformation: Compound NOT metabolized
--
Molecule: CC(O)(CS(=O)(=O)c1ccc(F)cc1)C(=O)Nc1ccc(C#N)c(C(F)(F)F)c1 (stereo not drawn) [BICALUTAMIDE]
Bacterial Biotransformation: Compound NOT metabolized
--
Molecule: O=C(O)CCc1nc(-c2ccccc2)c(-c2ccccc2)o1
Bacterial Biotransformation: Compound NOT metabolized
--
Molecule: CC(C)C[C@H]1C(=O)N2CCC[C@H]2[C@]2(O)O[C@](NC(=O)[C@@H]3C=C4c5cccc6[nH]c(Br)c(c56)C[C@H]4N(C)C3)(C(C)C)C(=O)N12.CS(=O)(=O)O [BROMOCRIPTINE MESYLATE]
Bacterial Biotransformation: Compound metabolized
--
Molecule: CN(C)CC(c1ccc(O)cc1)C1(O)CCCCC1.O=C(O)CCC(=O)O (stereo not drawn) [DESVENLAFAXINE SUCCINATE]
Bacterial Biotransformation: Compound NOT metabolized
--
Molecule: CS(=O)(=O)O.OC(CCN1CCCCC1)(c1ccccc1)c1ccccc1 [PRIDINOL METHANESULFONATE]
Bacterial Biotransformation: Compound NOT metabolized
--
Molecule: NC12CC3CC(CC(C3)C1)C2
Bacterial Biotransformation: Compound NOT metabolized
--
Molecule: CCOC(=O)C1=C[C@]2(CC)CCCN3CCc4c(n1c1ccccc41)[C@@H]32
Bacterial Biotransformation: Compound NOT metabolized
--
Molecule: CCCC(C)(COC(N)=O)COC(=O)NC(C)C (stereo not drawn)
Bacterial Biotransformation: Compound NOT metabolized
--
Molecule: CN1CCC(=C2c3ccccc3CCc3cccnc32)CC1.O=C(O)/C=C\C(=O)O.O=C(O)/C=C\C(=O)O [AZATADINE MALEATE]
Bacterial Biotransformation: Compound NOT metabolized
--
Molecule: CN1C(=O)CC(C)(c2ccccc2)C1=O (stereo not drawn) [METHSUXIMIDE]
Bacterial Biotransformation: Compound NOT metabolized
--
Molecule: N=C(N)NC(=O)Cc1c(Cl)cccc1Cl
Bacterial Biotransformation: Compound NOT metabolized
--
Molecule: CCc1cccc2c3c([nH]c12)C(CC)(CC(=O)O)OCC3 (stereo not drawn)
Bacterial Biotransformation: Compound NOT metabolized
--
Molecule: CNCCC(Oc1ccc(C(F)(F)F)cc1)c1ccccc1 (stereo not drawn)
Bacterial Biotransformation: Compound metabolized
--
Molecule: CC(N)C12CC3CC(CC(C3)C1)C2 (stereo not drawn)
Bacterial Biotransformation: Compound NOT metabolized
--
Molecule: CCN(CC)CCNC(=O)c1cc(S(C)(=O)=O)ccc1OC [TIAPRIDE]
Bacterial Biotransformation: Compound NOT metabolized
--
Molecule: COC1=C(OC)C(=O)C(CCCCCCCCCCO)=C(C)C1=O
Bacterial Biotransformation: Compound NOT metabolized
--
Molecule: COc1ccc2c(c1)c(CC(=O)O)c(C)n2C(=O)c1ccc(Cl)cc1
Bacterial Biotransformation: Compound metabolized

---

Assay: The drug is tested on Escherichia coli strain: BW25113 for biotransformation. The drug concentrations were measured before and after a 12-h incubation by liquid-chromatography-coupled mass spectrometry (LC–MS)
Conditions: 2 µM

Compound: CN1C[C@H](C(=O)N[C@]2(C)O[C@@]3(O)[C@@H]4CCCN4C(=O)[C@H](Cc4ccccc4)N3C2=O)C=C2c3cccc4[nH]cc(c34)C[C@H]21.CN1C[C@H](C(=O)N[C@]2(C)O[C@@]3(O)[C@@H]4CCCN4C(=O)[C@H](Cc4ccccc4)N3C2=O)C=C2c3cccc4[nH]cc(c34)C[C@H]21.O=C(O)C(O)C(O)C(=O)O [ERGOTAMINE TARTRATE]
Bacterial Biotransformation: Compound metabolized
--
Compound: C#C[C@]1(OC(C)=O)CC[C@H]2[C@@H]3CCC4=CC(=O)CC[C@@H]4[C@H]3CC[C@@]21C [NORETHINDRONE ACETATE]
Bacterial Biotransformation: Compound metabolized
--
Compound: COc1ccc(Cc2nccc3cc(OC)c(OC)cc23)cc1OC
Bacterial Biotransformation: Compound NOT metabolized
--
Compound: CCCc1nc2c(C)cc(-c3nc4ccccc4n3C)cc2n1Cc1ccc(-c2ccccc2C(=O)O)cc1
Bacterial Biotransformation: Compound NOT metabolized
--
Compound: CC(Oc1c(Cl)cccc1Cl)C1=NCCN1 (configuration not stated)
Bacterial Biotransformation: Compound metabolized
--
Compound: NC(CO)(CO)CO.O=C(c1ccccc1)c1ccc2n1CCC2C(=O)O (configuration not stated)
Bacterial Biotransformation: Compound NOT metabolized
--
Compound: C#C[C@]1(O)CC[C@H]2[C@@H]3CCC4=Cc5oncc5C[C@]4(C)[C@H]3CC[C@@]21C
Bacterial Biotransformation: Compound metabolized

---

Target: UniProt Q8A0C5
Sequence (Q8A0C5 whole entry): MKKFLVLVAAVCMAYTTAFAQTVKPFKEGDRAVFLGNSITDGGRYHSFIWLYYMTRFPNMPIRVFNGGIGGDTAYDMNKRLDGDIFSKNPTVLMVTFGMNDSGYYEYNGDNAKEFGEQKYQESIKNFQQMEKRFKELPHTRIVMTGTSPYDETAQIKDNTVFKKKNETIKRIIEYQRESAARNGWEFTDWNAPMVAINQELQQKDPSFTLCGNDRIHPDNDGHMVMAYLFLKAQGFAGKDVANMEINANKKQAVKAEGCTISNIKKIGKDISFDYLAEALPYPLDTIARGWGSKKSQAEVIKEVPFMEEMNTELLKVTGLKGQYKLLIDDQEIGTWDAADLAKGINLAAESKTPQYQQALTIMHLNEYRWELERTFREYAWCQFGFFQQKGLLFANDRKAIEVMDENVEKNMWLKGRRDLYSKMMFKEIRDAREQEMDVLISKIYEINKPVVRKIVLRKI
Assay: The drug is tested on Bacteroides thetaiotaomicron strain: VPI-5482 for biotransformation. The drug concentrations were measured before and after a 12-h incubation by liquid-chromatography-coupled mass spectrometry (LC–MS)
Type: ADME
Set-up: dose 2 uM
Details: 2 µM

Molecule: CCOC(=O)C1=C(C)NC(C)=C(C(=O)OC)C1c1cccc([N+](=O)[O-])c1 (stereo not drawn) [NITRENDIPINE]
Bacterial Biotransformation: Compound NOT metabolized
--
Molecule: N#Cc1ccc2c(c1)N(CCCN1CCC(O)CC1)c1ccccc1S2 [PERICIAZINE]
Bacterial Biotransformation: Compound NOT metabolized

---

Experiment: The drug is tested on Bacteroides cellulosilyticus strain: DSM14838 for biotransformation. The drug concentrations were measured before and after a 12-h incubation by liquid-chromatography-coupled mass spectrometry (LC–MS)
Conditions: 2 µM

Compound: CN(C)C(=O)C(CCN1CCC(O)(c2ccc(Cl)cc2)CC1)(c1ccccc1)c1ccccc1 [LOPERAMIDE]
Bacterial Biotransformation: Compound NOT metabolized
//
Compound: C#C[C@]1(OC(C)=O)CC[C@H]2[C@@H]3CCC4=C[C@@H](OC(C)=O)CC[C@@H]4[C@H]3CC[C@@]21C [ETHYNODIOL DIACETATE]
Bacterial Biotransformation: Compound NOT metabolized
//
Compound: CC(C)(Oc1ccc(CCNC(=O)c2ccc(Cl)cc2)cc1)C(=O)O [BEZAFIBRATE]
Bacterial Biotransformation: Compound metabolized
//
Compound: CN1CCN2c3ccccc3Cc3ccccc3C2C1 (centres undefined) [MIANSERIN]
Bacterial Biotransformation: Compound NOT metabolized
//
Compound: OC(CCN1CCCCC1)(c1ccccc1)C1CC2C=CC1C2 (centres undefined) [BIPERIDEN]
Bacterial Biotransformation: Compound NOT metabolized
//
Compound: CCCc1nc2c(C)cc(-c3nc4ccccc4n3C)cc2n1Cc1ccc(-c2ccccc2C(=O)O)cc1
Bacterial Biotransformation: Compound metabolized
//
Compound: Cc1ccccc1N1C(=O)c2cc(S(N)(=O)=O)c(Cl)cc2NC1C (centres undefined) [METOLAZONE]
Bacterial Biotransformation: Compound NOT metabolized
//
Compound: CNCCC(Oc1ccc(C(F)(F)F)cc1)c1ccccc1 (centres undefined) [FLUOXETINE]
Bacterial Biotransformation: Compound NOT metabolized
//
Compound: COc1c(C)c2c(c(O)c1C/C=C(\C)CCC(=O)OCCN1CCOCC1)C(=O)OC2 [MYCOPHENOLATE MOFETIL]
Bacterial Biotransformation: Compound metabolized

---

Test: The drug is tested on Alistipes indistinctus strain: DSM22520 for biotransformation. The drug concentrations were measured before and after a 12-h incubation by liquid-chromatography-coupled mass spectrometry (LC–MS)
Details: 2 µM
Observed Property: Bacterial Biotransformation

Compound: C=CC[C@@H]1/C=C(\C)C[C@H](C)C[C@H](OC)[C@H]2O[C@@](O)(C(=O)C(=O)N3CCCC[C@H]3C(=O)O[C@H](/C(C)=C/[C@@H]3CC[C@@H](O)[C@H](OC)C3)[C@H](C)[C@@H](O)CC1=O)[C@H](C)C[C@@H]2OC.O [TACROLIMUS]
Result: Compound metabolized
//
Compound: C#C[C@]1(OC(C)=O)CC[C@H]2[C@@H]3CCC4=CC(=O)CC[C@@H]4[C@H]3CC[C@@]21C [NORETHINDRONE ACETATE]
Result: Compound metabolized
//
Compound: CN(C(=O)CN(CCO)CC(=O)N(C)C(C)(C)Cc1ccccc1)C(C)(C)Cc1ccccc1 [OXETHAZAINE]
Result: Compound NOT metabolized
//
Compound: Nc1nc2ccc(OC(F)(F)F)cc2s1 [RILUZOLE]
Result: Compound NOT metabolized
//
Compound: O=C(CCCN1CCC2(CC1)C(=O)NCN2c1ccccc1)c1ccc(F)cc1 [SPIPERONE]
Result: Compound NOT metabolized
//
Compound: CC(=O)OCC(=O)[C@@]1(OC(C)=O)[C@@H](C)C[C@H]2[C@@H]3C[C@H](F)C4=CC(=O)C=C[C@]4(C)[C@@]3(F)[C@@H](O)C[C@@]21C [DIFLORASONE DIACETATE]
Result: Compound metabolized
